# Tested on: 252836-082-R-J2-PDC tumor spheroids, viability
# assay_protocol: Anticancer human tumor 252836-082-R-J2-PDC patient-derived head and neck squamous cell carcinoma cell line growth inhibition [PI3K]
# setup_conditions: second compound 0.0316 µM; first compound 0.1 µM; stronger effect = lower value; spheroids with HUVEC and MSC
// NB: equality with 60% counts as 0.0; only viability, T/C strictly below is 1.0

{"molecule": "CCN1CCN(Cc2ccc(Nc3ncc(F)c(-c4cc(F)c5nc(C)n(C(C)C)c5c4)n3)nc2)CC1 + COc1c(OCCCN2CCOCC2)ccc2c3n(c(=NC(=O)c4cnc(N)nc4)nc12)CCN3", "label_class": 1.0}

Query block: Is viability, T/C of CC(=O)c1c(C)c2cnc(Nc3ccc(N4CCNCC4)cn3)nc2n(C2CCCC2)c1=O + CC(Nc1ncnc2nc[nH]c12)c1cc2cccc(Cl)c2c(=O)n1-c1ccccc1 strictly below 60%?
Result block: 0.0

Query block: Is viability, T/C of Cn1nccc1Nc1nccc(-c2ccn(C(CO)c3ccc(Cl)c(F)c3)c(=O)c2)n1 (stereo not given) + COc1c(OCCCN2CCOCC2)ccc2c3n(c(=NC(=O)c4cnc(N)nc4)nc12)CCN3 strictly below 60%?
Result block: 0.0

Query block: Is viability, T/C of CC(Cn1ccc(-c2ccc(C#N)c(Cl)c2)n1)NC(=O)c1cc(C(C)O)[nH]n1 (stereo not given) + CC(Nc1ncnc2nc[nH]c12)c1cc2cccc(Cl)c2c(=O)n1-c1ccccc1 strictly below 60%?
Result block: 0.0

* * *

# System: 252836-082-R-J2-PDC tumor spheroids, viability
# assay_protocol: Anticancer human tumor 252836-082-R-J2-PDC cell line growth inhibition [PI3K];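 further: spheroids exposed to agents for seven days before readout; percent of vehicle DMSO control viability so 100% = untreated growth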
# setup_conditions: second compound 0.316 µM; first compound 0.0316 µM; stronger effect = lower value; spheroids with HUVEC and MSC
// NB: equality with 40% counts as label 0; only viability, T/C strictly below is label 1

{"compound": "CC1(C)CCC(Nc2ncc(C(F)(F)F)c(-c3c[nH]c4c(P(C)(C)=O)c(C#N)ccc34)n2)CN1 (stereo unspecified) + Cc1nc(NC(=O)N2CCCC2C(N)=O)sc1-c1ccnc(C(C)(C)C(F)(F)F)c1", "label_class": "label 1"}
{"compound": "CC(Cn1ccc(-c2ccc(C#N)c(Cl)c2)n1)NC(=O)c1cc(C(C)O)[nH]n1 (stereo unspecified) + CC(Nc1ccc2c(c1)OCCn1cc(N3C(=O)OCC3C(F)F)nc1-2)C(N)=O", "label_class": "label 0"}
{"compound": "C#Cc1c(F)ccc2cc(O)cc(-c3ncc4c(N5CC6CCC(C5)N6)nc(OCC56CCCN5CC(F)C6)nc4c3F)c12 (stereo unspecified) + CC(Nc1ncnc2nc[nH]c12)c1cc2cccc(Cl)c2c(=O)n1-c1ccccc1", "label_class": "label 0"}
{"compound": "CNC(=O)c1ccc(N2C(=S)N(c3ccc(C#N)c(C(F)(F)F)c3)C(=O)C2(C)C)cc1F + Cc1nc(NC(=O)N2CCCC2C(N)=O)sc1-c1ccnc(C(C)(C)C(F)(F)F)c1", "label_class": "label 0"}
{"compound": "C[C@@H](NC(=O)c1ncnc(N)c1Cl)c1ncc(C(=O)Nc2cc(C(F)(F)F)c(Cl)cn2)s1 + COc1c(OCCCN2CCOCC2)ccc2c3n(c(=NC(=O)c4cnc(N)nc4)nc12)CCN3", "label_class": "label 1"}
{"compound": "CCCS(=O)(=O)Nc1ccc(F)c(C(=O)c2c[nH]c3ncc(-c4ccc(Cl)cc4)cc23)c1F + CC(Nc1ncnc2nc[nH]c12)c1cc2cccc(Cl)c2c(=O)n1-c1ccccc1", "label_class": "label 0"}

Query block: Is viability, T/C of CC(C)n1nc(-c2ccc3oc(N)nc3c2)c2c(N)ncnc21 + CC(Nc1ccc2c(c1)OCCn1cc(N3C(=O)OCC3C(F)F)nc1-2)C(N)=O strictly below 40%?
Result block: label 1

Query block: Is viability, T/C of CC(C)n1nc(-c2ccc3oc(N)nc3c2)c2c(N)ncnc21 + Cc1nc(NC(=O)N2CCCC2C(N)=O)sc1-c1ccnc(C(C)(C)C(F)(F)F)c1 strictly below 40%?
Result block: label 0

Query block: Is viability, T/C of CC(Cn1ccc(-c2ccc(C#N)c(Cl)c2)n1)NC(=O)c1cc(C(C)O)[nH]n1 (stereo unspecified) + Cc1nc(NC(=O)N2CCCC2C(N)=O)sc1-c1ccnc(C(C)(C)C(F)(F)F)c1 strictly below 40%?
Result block: label 0

Query block: Is viability, T/C of C=CC(=O)N1CCN(c2nc(=O)n(-c3c(C)ccnc3C(C)C)c3nc(-c4c(O)cccc4F)c(F)cc23)C(C)C1 (stereo unspecified) + Cc1nc(NC(=O)N2CCCC2C(N)=O)sc1-c1ccnc(C(C)(C)C(F)(F)F)c1 strictly below 40%?
Result block: label 0

Query block: Is viability, T/C of CC(C)NCC(C(=O)N1CCN(c2ncnc3c2C(C)CC3O)CC1)c1ccc(Cl)cc1 (stereo unspecified) + COc1c(OCCCN2CCOCC2)ccc2c3n(c(=NC(=O)c4cnc(N)nc4)nc12)CCN3 strictly below 40%?
Result block: label 1
